These entries and their values trace back to patent US20220144881A1.

- Method Notes: Effect of relative humidity on polymorphic forms of Compound 10 (monitored by XRPD)
- Type: physicochemical
- Condition Details: RH = relative humidity
Quantity: Description of polymorph (stability / conditions of formation)

Nc1ncn([C@H]2C[C@H](OP(=O)([O-])OC[C@H]3O[C@@H](n4cnc5c(=O)[nH]c(N)nc54)C[C@@H]3O)[C@@H](CO)O2)c(=O)n1.[Na+] [Form A, guadecitabine sodium] ... Stable form at 0% RH
Nc1ncn([C@H]2C[C@H](OP(=O)([O-])OC[C@H]3O[C@@H](n4cnc5c(=O)[nH]c(N)nc54)C[C@@H]3O)[C@@H](CO)O2)c(=O)n1.[Na+] [Form B, guadecitabine sodium] ... Stable form at 0% RH
